test system: AsPC-1; experiment: 72-hour CellTiter-Glo 2.0 growth inhibition screen (single agent, 9x9 combination dose matrix); format: cell-based; conditions: AsPC-1, Pancreas; Additional Single Agent Responses (inhibition, % I), 72 h
Measurement name: Response Area
Answer using only a numeral; do not append any unit.

Answered cases to consult:
1) C=CC(=O)N1CCN(c2nc(=O)n(-c3c(C)ccnc3C(C)C)c3nc(-c4c(O)cccc4F)c(F)cc23)[C@@H](C)C1    0.00
2) CN1CC[C@@H](c2c(O)cc(O)c3c(=O)cc(-c4ccc(C(F)(F)F)cc4Cl)oc23)[C@@H]1CO    1.96
3) CN1CCN(c2ccc(OC(F)(F)F)c(Nc3ncc4c(n3)-c3c(c(C(N)=O)nn3CCO)CC4)c2)CC1    2.50

Now let's try a different one.
query: Recorded Response Area for `CC[C@@H]1C(=O)N(C)c2cnc(Nc3ccc(C(=O)N[C@H]4CC[C@H](N5CCN(CC6CC6)CC5)CC4)cc3OC)nc2N1C(C)C` , please?
result: 3.11

* * *

experiment: PK of voruciclib, 2 weeks of daily dosing followed by 1 week without dosing in a 21-day cycle (Table 3); format: in vivo, human; details: human, plasma, oral, 850 mg, Day 1, 2 weeks daily dosing/1 week off, mean
Measurement name: Cmax (ng/mL)
All answers are understood in ng/mL, so give the number only.

query: Recorded Cmax for `CN1CC[C@@H](c2c(O)cc(O)c3c(=O)cc(-c4ccc(C(F)(F)F)cc4Cl)oc23)[C@@H]1CO` , please?
result: 1730

* * *

experiment: PK of voruciclib, 2 weeks of daily dosing followed by 1 week without dosing in a 21-day cycle (Table 3); type: in vivo, human; settings: human, plasma, oral, 300 mg, Day 1, 2 weeks daily dosing/1 week off, mean
Measurement name: AUC(0-inf) (µg·h/mL)
All answers are understood in µg·h/mL, so give the number only.

query: Recorded AUC(0-inf) for `CN1CC[C@@H](c2c(O)cc(O)c3c(=O)cc(-c4ccc(C(F)(F)F)cc4Cl)oc23)[C@@H]1CO` , please?
result: 148

* * *

assay: PK of voruciclib, 2 weeks of daily dosing followed by 1 week without dosing in a 21-day cycle (Table 3); type: in vivo, human; settings: human, plasma, oral, 850 mg, Day 13, 2 weeks daily dosing/1 week off, mean
Measurement name: AUC(0-inf)
Don't forget the unit after the number, please.

query: Recorded AUC(0-inf) for `CN1CC[C@@H](c2c(O)cc(O)c3c(=O)cc(-c4ccc(C(F)(F)F)cc4Cl)oc23)[C@@H]1CO` , please?
result: 170 µg·h/mL

* * *

assay: PK of voruciclib, 2 weeks of daily dosing followed by 1 week without dosing in a 21-day cycle (Table 3); format: in vivo, human; conditions: human, plasma, oral, 850 mg, Day 13, 2 weeks daily dosing/1 week off, mean; read-out: AUC0-24
Measurement name: AUC(0-t) (ng·h/mL)
All answers are understood in ng·h/mL, so give the number only.

query: Recorded AUC(0-t) for `CN1CC[C@@H](c2c(O)cc(O)c3c(=O)cc(-c4ccc(C(F)(F)F)cc4Cl)oc23)[C@@H]1CO` , please?
result: 83900

* * *

assay: PK of voruciclib, daily dosing continuously (Table 4); assay type: in vivo; settings: human, plasma, oral, 150 mg, Day 15, daily dosing continuously, mean
Measurement name: Cmax (ng/mL)
All answers are understood in ng/mL, so give the number only.

query: Recorded Cmax for `CN1CC[C@@H](c2c(O)cc(O)c3c(=O)cc(-c4ccc(C(F)(F)F)cc4Cl)oc23)[C@@H]1CO` , please?
result: 755
